Data origin: the supplement of paper PMC6607015

test system: HeLa MZ; test: whole-cell filipin (free cholesterol) integrated intensity, Z-score; higher = more cholesterol staining; conditions: compound concentration in added solution (µM; 5 µl added to 20 µl cells): 10; 18 h
Some compounds, each annotated with its measured whole-cell filipin (z-score).

Use the examples below as a reference point.
CCOC1O[C@H]([C@@H](COCc2ccccc2)OCc2ccccc2)[C@H](OCc2ccccc2)[C@H]1O (some centres undefined) [Tribenoside]
1.71
Cc1c(NC(=O)c2cccnc2)c(=O)n(-c2ccccc2)n1C
-0.647
Cc1onc(-c2ccccc2)c1C(=O)N[C@@H]1C(=O)N2[C@@H]1SC(C)(C)[C@@H]2C(=O)O [Oxacillin sodium]
-0.0335

input: Could you share what whole-cell filipin (z-score) was measured for Cc1cccc(Nc2ccccc2C(=O)O)c1C , tested on HeLa MZ?
output: -0.4

* * *

system: HeLa MZ; assay: LBPA endosome anti-LBPA integrated intensity (sum per cell), Z-score; higher = more LBPA staining; conditions: compound concentration in added solution (µM; 5 µl added to 20 µl cells): 10; 18 h
Counter-ions that a name gives are not always drawn.
REPORTED PROPERTY: LBPA endosome anti-LBPA integrated intensity (z-score)
Quick one: just the number, no unit, thanks!

Use the examples below as a reference point.
CN(C)CCCO[C@@H]1[C@H]2OC(C)(C)O[C@H]2O[C@@H]1[C@H](O)CO [Amiprilose hydrochloride]
-0.384
CN(C)[C@@H]1C(O)=C(C(N)=O)C(=O)[C@@]2(O)C(O)=C3C(=O)c4c(O)cccc4[C@@](C)(O)[C@H]3[C@H](O)[C@@H]12 [Oxytetracycline dihydrate]
-0.93

Then this molecule:
input: Could you tell me which LBPA endosome anti-LBPA integrated intensity (z-score) is on file for CN[C@@H]1[C@@H](O[C@H]2O[C@H](CO)[C@@H](N)[C@H](O)[C@H]2O)OC2C[C@@H](N)[C@@H](O[C@H]3[C@H](O)[C@@H](O)[C@H](N)C[C@@H]3N)OC2[C@@H]1O (stereo partly drawn) ?
output: -0.358

* * *

Some molecules, each annotated with its measured whole-cell filipin (z-score).
tested on: HeLa MZ; experiment: whole-cell filipin (free cholesterol) integrated intensity, Z-score; higher = more cholesterol staining; conditions: compound concentration in added solution (µM; 5 µl added to 20 µl cells): 10; 18 h
Where a name gives a salt, the structure may show the parent alone.
Quick one: just the number, no unit, thanks!

O=C1c2ccccc2C(=O)C1c1ccccc1
-0.343
NS(=O)(=O)c1cc2c(cc1Cl)N=C(CSCc1ccccc1)NS2(=O)=O [Benzthiazide]
-0.328
O=C(CCCN1CCC(O)(c2ccc(Br)cc2)CC1)c1ccc(F)cc1
1.12
O=c1cc(-c2ccc(O)c(O)c2)oc2cc(O)cc(O)c12
-0.0366
CC1(C)S[C@@H]2[C@H](NC(=O)[C@H](N)c3ccccc3)C(=O)N2[C@H]1C(=O)OC1OC(=O)c2ccccc21 (stereo partly drawn) [Talampicillin hydrochloride]
0.482

input: Could you tell me which whole-cell filipin (z-score) is on file for OCCOCCN1CCN(C(c2ccccc2)c2ccc(Cl)cc2)CC1 (stereo not drawn) [Hydroxyzine dihydrochloride] ?
output: -0.465

input: Could you tell me which whole-cell filipin (z-score) is on file for Cc1ncc([N+](=O)[O-])n1CC(O)CCl (stereo not drawn) ?
output: -0.699

* * *

system: A431; test: filipin (cholesterol) integrated intensity within LBPA endosomes, Z-score; higher = more cholesterol in LBPA endosomes; conditions: compound concentration in added solution (µM; 5 µl added to 20 µl cells): 10; 18 h
Structures can show the parent of a compound that is named as a salt.
Label false if filipin (z-score) falls below 0.5; label true in every other case.

Completed entries (count: 2):
O=P(O)(O)C(Cl)(Cl)P(=O)(O)O [Clodronate]
false
COc1cc2ncnc(Nc3ccc(F)c(Cl)c3)c2cc1OCCCN1CCOCC1 [Gefitinib]
true

input: Would you say CCCCc1oc2ccccc2c1C(=O)c1cc(I)c(OCCN(CC)CC)c(I)c1 [Amiodarone hydrochloride] shows filipin (z-score) at minimum 0.5?
output: true

input: Would you say NS(=O)(=O)c1cc(C(=O)O)cc(N2CCCC2)c1Oc1ccccc1 [Piretanide] shows filipin (z-score) at minimum 0.5?
output: false

* * *

test system: A431; experiment: filipin (cholesterol) integrated intensity within LBPA endosomes, Z-score; higher = more cholesterol in LBPA endosomes; conditions: compound concentration in added solution (µM; 5 µl added to 20 µl cells): 10; 18 h
REPORTED PROPERTY: filipin (z-score)
Quick one: just the number, no unit, thanks!

input: Could you tell me which filipin (z-score) is on file for C#C[C@]1(OC(C)=O)CC[C@H]2[C@@H]3CCC4=C[C@@H](OC(C)=O)CC[C@@H]4[C@H]3CC[C@@]21C [Ethynodiol diacetate] ?
output: -0.191

input: Could you tell me which filipin (z-score) is on file for C=C1C[C@H]2[C@@H]3C=C(C)C4=CC(=O)CC[C@]4(C)[C@H]3CC[C@]2(C)[C@@]1(OC(C)=O)C(C)=O [Melengestrol acetate] ?
output: 1.58

input: Could you tell me which filipin (z-score) is on file for CCC[C@H](N[C@@H](C)C(=O)N1[C@H](C(=O)O)C[C@@H]2CCCC[C@@H]21)C(=O)OCC ?
output: -0.305

* * *

test system: A431; assay: LBPA endosome anti-LBPA integrated intensity (sum per cell), Z-score; higher = more LBPA staining; conditions: compound concentration in added solution (µM; 5 µl added to 20 µl cells): 10; 18 h
Structures can show the parent of a compound that is named as a salt.
Recorded LBPA endosome anti-LBPA integrated intensity (z-score) determines the label; the label ranges are low end = under -0.5, middle = from -0.5 up to -0.3, high end = -0.3 and over

CN(C)CCN(Cc1ccccc1)c1ccccn1 [Tripelennamine hydrochloride]
high end
CN1CCC[C@@H]1CCO[C@](C)(c1ccccc1)c1ccc(Cl)cc1 [Clemastine fumarate]
high end
COc1nc(C)nc(Cl)c1NC1=NCCN1 [Moxonidine]
high end
C=C(CC)C(=O)c1ccc(OCC(=O)O)c(Cl)c1Cl [Ethacrynic acid]
middle

input: State the class of the compound shown: CC(NCCc1ccc(O)cc1)C(O)c1ccc(O)cc1 (centres undefined) [Ritodrine hydrochloride]
output: middle

input: State the class of the compound shown: Nc1nc(F)nc2c1ncn2[C@@H]1O[C@H](CO)[C@@H](O)[C@@H]1O [Fludarabine]
output: middle

input: State the class of the compound shown: CC(=O)NS(=O)(=O)c1ccc(N)cc1 [Sulfacetamide sodic hydrate]
output: middle

input: State the class of the compound shown: OCCN1CCN(CCCN2c3ccccc3C=Cc3ccccc32)CC1 [Opipramol dihydrochloride]
output: high end

input: State the class of the compound shown: NC(Cc1cc(I)c(Oc2cc(I)c(O)c(I)c2)c(I)c1)C(=O)O (centres undefined) [Thyroxine (L)]
output: low end

input: State the class of the compound shown: CC(=O)/N=c1/sc(S(N)(=O)=O)nn1C [Methazolamide]
output: low end

input: State the class of the compound shown: CC1(C)S[C@@H]2[C@H](NC(=O)[C@H](C(=O)O)c3ccsc3)C(=O)N2[C@H]1C(=O)O [Ticarcillin sodium]
output: middle

input: State the class of the compound shown: CC(=O)NC[C@H]1CN(c2ccc(N3CCOCC3)c(F)c2)C(=O)O1 [Linezolid]
output: low end

input: State the class of the compound shown: O=C(O)CCCC[C@@H]1SC[C@@H]2NC(=O)N[C@@H]21 [Biotin]
output: middle

input: State the class of the compound shown: O=C(O)CCc1nc(-c2ccccc2)c(-c2ccccc2)o1 [Oxaprozin]
output: middle

input: State the class of the compound shown: OC[C@H]1O[C@@H](Oc2ccc(O)cc2)[C@H](O)[C@@H](O)[C@@H]1O [Arbutin]
output: middle

input: State the class of the compound shown: CC(C)NCC(O)c1cc(O)cc(O)c1 (centres undefined) [Metaproterenol sulfate, orciprenaline sulfate]
output: middle

input: State the class of the compound shown: CC(=O)OCC(=O)[C@@]12OC3(CCCC3)O[C@@H]1C[C@H]1[C@@H]3CCC4=CC(=O)C=C[C@]4(C)[C@@]3(F)[C@@H](O)C[C@@]12C [Amcinonide]
output: high end

input: State the class of the compound shown: CO[C@H]1/C=C/O[C@@]2(C)Oc3c(C)c(O)c4c(O)c(c(/C=N/N5CCN(C6CCCC6)CC5)c(O)c4c3C2=O)NC(=O)/C(C)=C\C=C\[C@H](C)[C@H](O)[C@@H](C)[C@@H](O)[C@@H](C)[C@H](OC(C)=O)[C@@H]1C [Rifapentine]
output: middle

input: State the class of the compound shown: CC(C[N+](C)(C)C)OC(N)=O (centres undefined) [Bethanechol chloride]
output: low end

input: State the class of the compound shown: CNCCCC12CCC(c3ccccc31)c1ccccc12 [Maprotiline hydrochloride]
output: high end

input: State the class of the compound shown: Nc1ccc(S(=O)(=O)Nc2ccnn2-c2ccccc2)cc1 [Sulfaphenazole]
output: low end

input: State the class of the compound shown: CCN1C(=O)NC(c2ccccc2)C1=O (centres undefined) [Ethotoin]
output: high end

input: State the class of the compound shown: Cn1cnc2c1c(=O)[nH]c(=O)n2C [Theobromine]
output: low end
